EXPERIMENT_NOTES: Pharmacokinetics and tissue distribution study of HCQ in SD rats after single-dose IV/IT Free HCQ or IT TLC19 (Study No. PK20021)
REPORTED_CONDITIONS: Sprague-Dawley, rat, in vivo, inhaled or intranasal, 0.59 mg, Cmax of HCQ, rat heart; Free HCQ, IT administration, 0.590 mg/animal
ENDPOINT_NAME: Cmax (ng/g)
API: value field is a number in ng/g; no unit string.

Ask | Please look up its Cmax: CCN(CCO)CCCC(C)Nc1ccnc2cc(Cl)ccc12 (stereo not shown) [Free HCQ, hydroxychloroquine]
Reply | 3800

---

EXPERIMENT_NOTES: Pharmacokinetics and tissue distribution study of HCQ in SD rats after single-dose IV/IT Free HCQ or IT TLC19 (Study No. PK20021)
REPORTED_CONDITIONS: Sprague-Dawley, rat, in vivo, iv, 0.59 mg/animal
ENDPOINT_NAME: concentration at 24 h

Ask | Bench note: what concentration at 24 h did CCN(CCO)CCCC(C)Nc1ccnc2cc(Cl)ccc12 (stereo not shown) [Free HCQ, hydroxychloroquine] show?
Reply | 3770 ng/g

---

EXPERIMENT_NOTES: Pharmacokinetics and tissue distribution study of HCQ in SD rats after single-dose IV/IT Free HCQ or IT TLC19 (Study No. PK20021)
REPORTED_CONDITIONS: Sprague-Dawley, rat, in vivo, iv, 0.59 mg, Cmax of HCQ, rat heart; Free HCQ, IV injection, 0.590 mg/animal
ENDPOINT_NAME: Cmax (ng/g)
Field format: number, assumed ng/g, no unit text.

Ask | Which Cmax value is on record for CCN(CCO)CCCC(C)Nc1ccnc2cc(Cl)ccc12 (stereo not shown) [Free HCQ, hydroxychloroquine] ?
Reply | 4500

---

EXPERIMENT_NOTES: Pharmacokinetics and tissue distribution study of HCQ in SD rats after single-dose IV/IT Free HCQ or IT TLC19 (Study No. PK20021)
REPORTED_CONDITIONS: Sprague-Dawley, rat, in vivo, inhaled or intranasal, 0.59 mg, Cmax of HCQ, rat lung; Free HCQ, IT administration, 0.590 mg/animal
ENDPOINT_NAME: Cmax (ng/g)
I only need the number, in ng/g, no unit after it.

Ask | Entry under review: CCN(CCO)CCCC(C)Nc1ccnc2cc(Cl)ccc12 (stereo not shown) [Free HCQ, hydroxychloroquine] . Reported Cmax?
Reply | 47800

---

EXPERIMENT_NOTES: Pharmacokinetics and tissue distribution study of HCQ in SD rats after single-dose IV/IT Free HCQ or IT TLC19 (Study No. PK20021)
REPORTED_CONDITIONS: Sprague-Dawley, rat, in vivo, iv, 0.59 mg
ENDPOINT_NAME: AUC(0-t)
// return the numeric value with its unit appended

Ask | Can you look up the measured AUC(0-t) of CCN(CCO)CCCC(C)Nc1ccnc2cc(Cl)ccc12 (stereo not shown) [Free HCQ, hydroxychloroquine] for me?
Reply | 2330 ng·h/mL

---

EXPERIMENT_NOTES: Pharmacokinetics and tissue distribution study of HCQ in SD rats after single-dose IV/IT Free HCQ or IT TLC19 (Study No. PK20021)
REPORTED_CONDITIONS: Sprague-Dawley, rat, in vivo, iv, 0.59 mg, Cmax of HCQ, rat blood; Free HCQ, IV injection, 0.590 mg/animal
ENDPOINT_NAME: Cmax
Quote the value and follow it with the unit of measurement.

Ask | # Cmax lookup, item CCN(CCO)CCCC(C)Nc1ccnc2cc(Cl)ccc12 (stereo not shown) [Free HCQ, hydroxychloroquine]
Reply | 433 ng/mL
